# ASSAY_REMARKS: WST-Assay (cell viability)
# Assay type: cell-based
# ASSAY_CONDITIONS: human, A549 cells, FIG. 17C
MEASURED_ATTRIBUTE: CC50 at 24 h

Given O=C(O)c1ccc(F)c(F)c1Nc1ccc(I)cc1Cl [PD-0184264] , state its recorded CC50 at 24 h. > 1.58 mM

###

# ASSAY_REMARKS: Pharmacokinetics, drug in plasma after i.v. or per os application
# Type: in vivo, NMRI mice
# ASSAY_CONDITIONS: mouse, plasma, iv; male NMRI mice; route of this value not stated (75 mg/kg i.v. / 150 mg/kg per os)
MEASURED_ATTRIBUTE: AUC (µg·h/mL)
Give a bare numeral; the unit µg·h/mL is implied.

Given O=C(O)c1ccc(F)c(F)c1Nc1ccc(I)cc1Cl , state its recorded AUC. 1950
